// provenance: PubChem BioAssay AID1626

assay explanation: M. tuberculosis H37Rv growth inhibitors, H37Rv strain (AID 1626);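 also: bacteria incubated seven days before Alamar blue readout; 0% = bacteria only wells and 100% = bacteria with antibiotic wells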
condition summary: hits give high values, concentration not given here
In all, about 220,000 compounds went through this assay and about 2,000 (0.91%) were called active. Roughly 2% stayed inconclusive and do not appear here. Not all results are given here. Potency and affinity values are given separately.
Overview of reported inhibition across a group of compounds:
All answers are understood in %, so give the number only.

Check out these entries, answers already filled in.
>>> test_value("CCOC(=O)CSc1nnc(COc2cccc(C)c2)o1")
-4.7
>>> test_value("COc1ccc(CN2CCc3ccccc3C2)c(OC)c1")
-5.76
>>> test_value("Cc1ccc(OCC(=O)N(Cc2cccs2)C2CCS(=O)(=O)C2)cc1C (configuration not stated)")
1.52
>>> test_value("COc1c(Cl)cc(Cl)cc1C(=O)Nc1ccccc1N1CCN(C(C)=O)CC1")
1.59
>>> test_value("COc1cccc(/C=C2\\SC(=S)N(NC(=O)c3ccncc3)C2=O)c1")
-9.97

Would you kindly look at the next entry?
Query CC1CCCCC1NC(=O)CSc1nnc(COc2ccccc2Cl)o1 (configuration not stated) yields inhibition of -2.14

----------
Listed compounds paired with reported inhibition
assay explanation: M. tuberculosis H37Rv growth inhibitors, H37Rv strain (AID 1626)
condition summary: hits give high values, concentration not given here
About 2,000 (0.91%) of roughly 220,000 compounds were called active. Inconclusive results (about 2%) are left out. These entries were drawn from the full list. Results with a measured potency or affinity are listed apart.
Reply with just the number (in %).

// known answers, use as guide
>>> test_value("NS(=O)(=O)c1ccc(-c2ccc(/C=C3\\SC(=S)N(C4CCS(=O)(=O)C4)C3=O)o2)cc1 (stereo not drawn)")
-2.38
>>> test_value("CCN1CCN(C(=O)COc2ccc3c(c2)C(=O)CC2(CCN(C(C)=O)CC2)O3)CC1")
-8.68
>>> test_value("C=CCNC(=O)Nc1cc(Cl)ccc1OC")
-2.63
>>> test_value("NS(=O)(=O)c1ccc(-c2ccc(C=NC3CCS(=O)(=O)C3)o2)cc1 (stereo not drawn)")
-11.7
>>> test_value("O=C1C(=O)c2c(C(=O)c3ccccc3)coc2-c2ccccc21")
4.79

What the record says about `CCN(CC)S(=O)(=O)c1cc(C(=O)OCC(=O)NC(=O)c2cccn2C)ccc1C` : inhibition is -5.23

The value of inhibition measured for the compound CC(OC(=O)C(NC(=O)c1ccco1)C(C)C)C(=O)Nc1ncc(Cl)cc1Cl (stereo not drawn) turned out to be -14.4

What the record says about `O=C(O)c1cc2c(s1)-c1ccccc1OC2` : inhibition is -9.86

----------
assay explanation: M. tuberculosis H37Rv growth inhibitors, H37Rv strain (AID 1626)
condition summary: hits give high values, concentration not given here
The campaign covered roughly 220,000 compounds. About 2,000 (0.91%) were called active. About 2% were inconclusive and are not listed. A selection follows. Results with a measured potency or affinity are listed apart.
observation type: inhibition (%)
Provide the reading as a plain figure in %.

>>> test_value("CS(=O)(=O)N(CC(=O)Nc1ccccc1C(=O)N1CCCC1)c1cccc([N+](=O)[O-])c1")
3.06
>>> test_value("O=C(c1ccc(F)cc1)C1CCN(C(=O)c2ccncc2)CC1")
-7.5
>>> test_value("Nc1ccc(-c2nc3ccc(N)cc3s2)cc1")
-3.52
>>> test_value("COc1ccc(CNC(=O)CC2C(=O)NCCN2CC(C)(C)C)c(OC)c1 (stereo not given)")
-2.94
>>> test_value("O=C(CN1CCSC1=NCc1ccccc1)c1ccccc1")
0.24
>>> test_value("CSc1ccc(CN2CCCC(CO)(Cc3ccccc3)C2)cc1 (stereo not given)")
-4.33
>>> test_value("CCOC(=O)C(NC(C)=O)(Nc1ccc(S(=O)(=O)Nc2cc(C)nc(C)n2)cc1)C(F)(F)F (stereo not given)")
-6.92
>>> test_value("COc1cc([N+](=O)[O-])cc(CN2CCCCC2)c1O")
2.21

# compound `COc1ccc(N(C(=O)Nc2ccc(Cl)cc2)C2=NCCC2)cc1` ; its inhibition = -4.11

// inhibition lookup, compound = `COc1ccc(CNC(=O)COC(=O)C2CCN(S(=O)(=O)c3ccccc3C(F)(F)F)CC2)cc1` , result: 1.6

Record CC(=O)Oc1ccc(N2C(=O)C3C(C2=O)C(C(=O)c2ccc(Cl)cc2)N2CCCC32)cc1 (stereo not given) , field inhibition: -5.33

Noted for COc1cccc(C(C(=O)NC(C)(C)C)N(CC(C)C)C(=O)CCC(=O)Nc2cc(C)on2)c1OC (stereo not given) : its inhibition reads -4.52

----------
assay explanation: M. tuberculosis H37Rv growth inhibitors, H37Rv strain (AID 1626);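 also: bacteria incubated seven days before Alamar blue readout; 0% = bacteria only wells and 100% = bacteria with antibiotic wells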
condition summary: hits give high values, concentration not given here
About 2,000 (0.91%) of roughly 220,000 compounds were called active. Roughly 2% stayed inconclusive and do not appear here. Only a sample is shown. Measured potencies and affinities stand elsewhere.
This listing pairs compounds with measured inhibition.
Give just the number in %; leave the unit off.

Guide cases for inhibition, answers given:
>>> test_value("Cc1ccc(C2=Nc3ccccc3N=C(c3ccc([N+](=O)[O-])cc3)C2)c(O)c1")
0.53
>>> test_value("CCC(C)[C@H](NC(=O)NCCC1=CCCCC1)C(=O)OC (stereo partly drawn)")
-7.06
>>> test_value("CCc1ccc(N=CC2=C(O)CC(c3ccco3)CC2=O)cc1 (stereo not drawn)")
81

Looking up `CCN(CC)S(=O)(=O)c1cccc(-c2nnc(SCc3nc4ccccc4s3)o2)c1` , I found its inhibition recorded as 2.86

get_value(item= Cc1ccc(CNC(=O)C2CC(c3cccc(F)c3)=NO2)cc1 (stereo not drawn) , readout=inhibition) returns 9.15

Entry `O=C(NCc1ccccn1)c1ccc(Br)s1` , inhibition reported as -0.44

So, `O=C(CSc1ccccn1)Nc1ccc2c(c1)OCCO2` ? Its inhibition was -16.3

Measured inhibition, `O=C1c2cc3ccccc3c(-c3ccccc3)c2C(=O)N1c1ccccn1` : 11.2

compound `Cc1cc(NS(=O)(=O)c2ccc(NC(=O)NC(C)(C(F)(F)F)C(F)(F)F)cc2)no1` , inhibition observed: 3.8

Form field inhibition, entry `CCCN(CC1CC1)C(=S)Nc1ccc(C(C)=O)cc1` : -2.45

Notebook: `O=c1[nH]c(SCc2ccc([N+](=O)[O-])cc2)nc2[nH]ncc12` , inhibition read as -6.17

Data point: `COc1ccc(-c2nnc(NC(=O)C(C)C)o2)cc1` ; inhibition = 28.3

inhibition reading for `COCCNC(=O)c1onc(CSc2ccc(C(C)C)cc2)c1C(=O)O` : -18.6

For this compound ( CCN1C(=O)C2(C(C#N)=C(N)Oc3n[nH]c(COC)c32)c2ccccc21 (stereo not drawn) ), measured inhibition is -1.31

The value of inhibition measured for the compound `CC(=O)Oc1ccc(C(=O)Nc2cc(NC(=O)c3ccc(OC(C)=O)cc3)cc(C(=O)NC(C)(C)C)c2)cc1` turned out to be -1.93

The recorded inhibition for entry `COc1ccc(N(CC(=O)Nc2c(C)n(C)n(-c3ccccc3)c2=O)S(=O)(=O)c2ccc(F)cc2)cc1` equals -0.85

Record C=CCN1C(=O)C(Cc2ccc(OC)cc2)S/C1=N\N=C\c1cccs1 (stereo not drawn) . Reported inhibition: -5.41

The compound listed as CCNC(=S)Nc1sc2c(c1C#N)CCC(C)C2 (stereo not drawn) has a reported inhibition of 9.49

----------
inhibition values, listed per item
assay explanation: M. tuberculosis H37Rv growth inhibitors, H37Rv strain (AID 1626);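 also: bacteria incubated seven days before Alamar blue readout; 0% = bacteria only wells and 100% = bacteria with antibiotic wells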
condition summary: hits give high values, concentration not given here
Screen size: about 220,000 compounds; about 2,000 (0.91%) were called active. About 2% were inconclusive and are not listed. The list is a sample of the results. Entries with a potency or affinity are not part of this list.
# output: bare number, implied unit %

>>> test_value("COc1ccccc1Nc1nc(N)nc(CSC(=S)N2CCCCC2)n1")
5.54
>>> test_value("CCN1C(c2ccccc2)=C(c2ccccc2)S/C1=C\\C=C1/SC(=S)N(C)C1=O")
3.07
>>> test_value("O=C(/C=C/c1ccccc1F)c1ccoc1")
2.06
>>> test_value("CN(C)/C=C/C(=O)c1cccc([N+](=O)[O-])c1")
6.88
>>> test_value("Cc1ccc(C(c2c(C)nn(-c3ccccc3)c2N)c2c(C)nn(-c3ccccc3)c2N)cc1")
6.99

Briefly, inhibition measured for NC(=O)C1CCN(C(=O)C2c3ccccc3C(=O)N3CCc4ccccc4C23)CC1 (stereo unspecified) : 1.51

----------
assay explanation: M. tuberculosis H37Rv growth inhibitors, H37Rv strain (AID 1626);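 also: bacteria incubated seven days before Alamar blue readout; 0% = bacteria only wells and 100% = bacteria with antibiotic wells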
condition summary: hits give high values, concentration not given here
The whole screen tested about 220,000 compounds, of which about 2,000 (0.91%) were called active. Another 2% or so got no clear call; they are omitted. Not all results are given here. Entries with a potency or affinity are not part of this list.
Parameter inhibition: see the listing below.
Response body: numeric value in %, unit text excluded.

As a guide, the following entries are already answered.
>>> test_value("CCCCCC(=O)N/N=C(\\C)c1ccccn1")
1.4
>>> test_value("COc1cccc(C(=O)Nc2c(F)c(F)c(F)c(F)c2F)c1")
0.52

Per the record, O=C(NCC1CCCN(Cc2cccc(C(F)(F)F)c2)C1)c1ccc(F)cc1 (stereo not drawn) has inhibition of -2.43

Please fill in: inhibition reported for `C/C(O)=C\c1nc2ccccc2oc1=O` = 75.9

The recorded inhibition for `N#C/C(=C\c1ccco1)c1nc2ccccc2s1` is 4.85

// inhibition lookup, compound = `Cc1ccc(S(=O)(=O)Nc2nc(-c3ccc(F)cc3)cs2)cc1` , result: -5.33

inhibition recorded for this compound, `COc1ccc(CNC(=O)c2cnccn2)cc1` , is -0.78

Entry `CN1CCC(N2CCN(c3cccc(C(F)(F)F)c3)CC2)CC1` ; inhibition = -9.94

Consider `COc1cc(OC)cc(C(=O)Nc2ccc(-c3nc4ccccc4o3)cc2)c1` . Its measured inhibition is 16

Reported inhibition ( `Cc1nnc(SCC(=O)N2CCC(Cc3ccccc3)CC2)n(N)c1=O` ) = 7

Lab note: O=C1CC(C(=O)O)C2(CCCC2)O1 (stereo not drawn) gave inhibition of 9.23

Lab note: `CCOc1ccccc1C(=O)Nc1nnc(CC)s1` gave inhibition of -4.9

# inhibition of `O=C(O)/C=C/c1ccc2ccccc2n1` = -1.78
